Protein target, amino acids: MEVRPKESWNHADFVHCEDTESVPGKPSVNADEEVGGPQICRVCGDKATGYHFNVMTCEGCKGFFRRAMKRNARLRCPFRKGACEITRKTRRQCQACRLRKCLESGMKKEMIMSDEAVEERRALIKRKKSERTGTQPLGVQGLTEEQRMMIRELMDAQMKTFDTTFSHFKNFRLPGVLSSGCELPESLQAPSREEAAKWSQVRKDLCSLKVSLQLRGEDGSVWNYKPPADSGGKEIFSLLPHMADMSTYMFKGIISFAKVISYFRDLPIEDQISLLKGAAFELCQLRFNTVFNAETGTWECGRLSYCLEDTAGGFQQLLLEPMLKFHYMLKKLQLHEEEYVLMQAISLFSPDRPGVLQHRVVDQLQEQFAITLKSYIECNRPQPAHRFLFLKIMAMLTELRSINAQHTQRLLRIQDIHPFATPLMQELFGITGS
Measured metric: hPXR Activity

Solved cases below.
1. C[C@]12CC[C@@H]3c4ccc(O)cc4CC[C@H]3[C@@H]1C[C@@H](O)C2=O | 5.60
2. C[C@H](CCC(O)C(CO)CO)[C@H]1CC[C@H]2[C@@H]3[C@H](O)C[C@@H]4C[C@H](O)CC[C@]4(C)[C@H]3C[C@H](O)[C@]12C (stereo partly drawn) [BI35, 5β-Cholestan-3α,7α,12α,24,26-hexol] | None
3. C[C@]12CC[C@@H]3c4ccc(O)cc4CC[C@H]3[C@@H]1C[C@@H](O)[C@@H]2O | None
4. C=C1/C(=C\C=C2/CCC[C@]3(C)[C@@H]([C@H](C)/C=C/[C@H](C)C(C)C)CC[C@@H]23)C[C@@H](O)C[C@@H]1O [MI42, 1α-Hydroxyvitamin D2] | None

For this molecule ( C[C@]12CC[C@@H](O)C[C@H]1CC[C@@H]1[C@@H]2C(=O)C[C@@]2(C)[C@H]1CC[C@]2(O)[C@@H](O)CO ), measured hPXR Activity is 4.35

----------
Target: human PXR (Homo sapiens, UniProt O75469)
Assay: PXR activation luciferase reporter assay, human PXR in HepG2-NTCP cells
Conditions: Human PXR EC50 (concentration class, Figure 2A), class read from box colour against the key of Figure 2
pEC50: −log10 of the molar value.
Measured metric: pEC50

The molecule identified as CC(=O)[C@H]1CC[C@H]2[C@@H]3CCC4=CC(=O)CC[C@]4(C)[C@H]3CC[C@]12C registered its pEC50 at 4.30 to 4.96

Kindly note the recorded pEC50 for C[C@]12C[C@H](O)[C@H]3[C@@H](CCC4=CC(=O)CC[C@@]43C)[C@@H]1CC[C@@H]2C(=O)CO , which is > 5.00

Lookup result for C[C@]12CCC(=O)C=C1CC[C@@H]1[C@@H]2CC[C@]2(C)C(=O)CC[C@@H]12 ; measured pEC50: 4.30 to 4.96

pEC50 for C[C@]12CC[C@@H]3c4ccc(O)cc4CC[C@H]3[C@@H]1CC[C@@H]2O is 4.30 to 4.96

Per the records, this molecule ( C[C@]12CCC(=O)C=C1CC[C@@H]1[C@@H]2C(=O)C[C@@]2(C)[C@H]1CC[C@]2(O)C(=O)CO ) has pEC50 equal to 3.70 to 4.29

Entry under test: C[C@]12CCC(=O)C=C1CC[C@@H]1[C@@H]2CC[C@@]2(C)[C@H]1CC[C@]2(O)C(=O)CO . Its pEC50 was 4.30 to 4.96

Form: molecule = C[C@]12CCC(=O)C=C1CC[C@@H]1[C@@H]2[C@@H](O)C[C@]2(C=O)[C@@H](C(=O)CO)CC[C@@H]12 ; pEC50 = 3.70 to 4.29
